- System: Noggin (protein binding on small-molecule microarray)
- ASSAY PROTOCOL: Noggin binders on small-molecule microarray, primary screen, biochemical, 635/667 nm fluorescence (AID 1095);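 further: score merges 667 nm feature fluorescence with signal to noise over triplicate slides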
- MEASUREMENT SETUP: 635 nm fluorescence, higher = more signal
METRIC: composite z-score

1. C[C@H]1C2[C@H](Cc3ccccc3)NC(=O)[C@]23C(=O)NCC(=O)N2CCC[C@H]2C(=O)NC/C=C\C/C=C/C3[C@@H]2O[C@]12C (stereo partly specified)
-0.102
2. COCCOC(=O)N1C(=O)[C@@]2(c3cc(C#CC4(O)CCCCCC4)ccc31)[C@H](C(=O)NC[C@H](O)c1ccccc1)[C@H]1C(=O)O[C@H](c3ccccc3)[C@H](c3ccccc3)N1[C@@H]2c1ccc(O)cc1
0.3
3. O=C1O[C@H](c2ccccc2)[C@H](c2ccccc2)N2[C@H]1[C@@H](C(=O)NC[C@H](O)c1ccccc1)[C@]1(C(=O)Nc3ccc(C#CCCO)cc31)[C@H]2c1ccccc1OCCO
0.795
4. COC(=O)c1c(CC[C@@H](CO)NC(=O)N[C@@H](Cc2ccccc2)Cn2cc(-c3cncn3C)nn2)oc(C(C)=O)c1C(=O)OC
0.801
5. C=CC(CO)NC(=O)OCC1c2ccccc2-c2ccccc21 (stereo unspecified)
0.497
6. Cc1ccc(S(=O)(=O)N2[C@@H](c3ccccc3)C(C(=O)O)=CC[C@H]2c2ccc(C#N)cc2)cc1
-0.495
